Field: Plant response rating, Lambsquarters. Provide a value for each of the molecules that follow.
Tested on: lambsquarters
assayName: Test C pre-/postemergence herbicide test
Type: in vivo, Chenopodium album
settings: Postemergence, 31 g ai/ha; scale 0 to 100 (0 no effect, 100 complete control)
Write the value as a bare number.

Which Plant response rating, Lambsquarters is listed for O=C1NCC(c2cccc(OC(F)F)c2)C1C(=O)Nc1ccccc1F (stereo not shown) [Compound 223] ?
0

Entry O=C1NCC(c2cccc(OC(F)F)c2)C1C(=O)Nc1ccc(F)c(F)c1F (stereo not shown) [Compound 325] has what Plant response rating, Lambsquarters?
20

Item under review: O=C1NCC(c2cccc(C(F)(F)F)c2)C1C(=O)Nc1ccc(F)c(F)c1F (stereo not shown) [Compound 315] . Reported Plant response rating, Lambsquarters?
60

Value lookup for Plant response rating, Lambsquarters; key = O=C1NCC(c2cccc(OC(F)F)c2)C1C(=O)Nc1cccc(F)c1F (stereo not shown) [Compound 324]
0

Look up Plant response rating, Lambsquarters: O=C1NCC(c2ccc(F)cc2)C1C(=O)Nc1cccc(F)c1F (racemic) [Compound 119]
5

Reported Plant response rating, Lambsquarters, molecule O=C1NCC(c2cccc(C(F)(F)F)c2)C1C(=O)Nc1ccccc1Cl (stereo not shown) [Compound 312] : ____
65

Requested read-out: Plant response rating, Lambsquarters. Entry: O=C1NCC(c2cccc(C(F)(F)F)c2)C1C(=O)Nc1ccc(F)cc1F (racemic) [Compound 207]
0
